- target: CSF1R (Homo sapiens, UniProt P07333)
- Sequence (P07333 20-972): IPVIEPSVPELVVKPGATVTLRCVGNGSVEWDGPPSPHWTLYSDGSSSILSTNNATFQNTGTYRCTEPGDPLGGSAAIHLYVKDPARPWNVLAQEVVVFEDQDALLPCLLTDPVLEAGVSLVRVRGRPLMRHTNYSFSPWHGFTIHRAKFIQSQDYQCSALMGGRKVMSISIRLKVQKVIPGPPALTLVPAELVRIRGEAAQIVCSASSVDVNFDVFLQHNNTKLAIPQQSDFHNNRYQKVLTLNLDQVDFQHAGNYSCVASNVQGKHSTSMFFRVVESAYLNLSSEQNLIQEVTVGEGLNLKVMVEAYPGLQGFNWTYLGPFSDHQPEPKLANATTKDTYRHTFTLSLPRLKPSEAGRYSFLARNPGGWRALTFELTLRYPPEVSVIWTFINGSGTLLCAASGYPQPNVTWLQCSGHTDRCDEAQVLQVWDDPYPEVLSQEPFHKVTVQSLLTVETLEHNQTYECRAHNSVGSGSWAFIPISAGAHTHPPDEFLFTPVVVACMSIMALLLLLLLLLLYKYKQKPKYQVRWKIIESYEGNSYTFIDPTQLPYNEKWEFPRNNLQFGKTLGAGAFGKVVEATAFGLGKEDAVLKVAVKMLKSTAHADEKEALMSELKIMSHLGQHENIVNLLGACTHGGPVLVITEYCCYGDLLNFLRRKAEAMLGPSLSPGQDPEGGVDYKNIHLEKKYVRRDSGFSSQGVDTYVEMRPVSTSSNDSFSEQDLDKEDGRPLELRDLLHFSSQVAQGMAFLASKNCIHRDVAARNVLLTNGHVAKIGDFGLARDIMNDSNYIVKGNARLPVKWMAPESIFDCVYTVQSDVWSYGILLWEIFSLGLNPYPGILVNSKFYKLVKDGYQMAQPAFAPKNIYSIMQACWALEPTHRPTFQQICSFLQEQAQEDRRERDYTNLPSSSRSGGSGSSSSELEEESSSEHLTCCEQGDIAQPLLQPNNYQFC
- experimentDescription: biochemical
observationType: pKd
Remember, pKd is on a log scale: it is -log10 of the molar concentration.

Exam item: Can you look up the measured pKd of COc1ccc(-c2cncc(N[C@@H](C)c3cccc(NC(=O)c4cncc(C)c4)c3)n2)cc1OC [Compound B] for me?
Marked response: 8.21

* * *

- target: FLT4 (Homo sapiens)
- Sequence (P35916 25-1363): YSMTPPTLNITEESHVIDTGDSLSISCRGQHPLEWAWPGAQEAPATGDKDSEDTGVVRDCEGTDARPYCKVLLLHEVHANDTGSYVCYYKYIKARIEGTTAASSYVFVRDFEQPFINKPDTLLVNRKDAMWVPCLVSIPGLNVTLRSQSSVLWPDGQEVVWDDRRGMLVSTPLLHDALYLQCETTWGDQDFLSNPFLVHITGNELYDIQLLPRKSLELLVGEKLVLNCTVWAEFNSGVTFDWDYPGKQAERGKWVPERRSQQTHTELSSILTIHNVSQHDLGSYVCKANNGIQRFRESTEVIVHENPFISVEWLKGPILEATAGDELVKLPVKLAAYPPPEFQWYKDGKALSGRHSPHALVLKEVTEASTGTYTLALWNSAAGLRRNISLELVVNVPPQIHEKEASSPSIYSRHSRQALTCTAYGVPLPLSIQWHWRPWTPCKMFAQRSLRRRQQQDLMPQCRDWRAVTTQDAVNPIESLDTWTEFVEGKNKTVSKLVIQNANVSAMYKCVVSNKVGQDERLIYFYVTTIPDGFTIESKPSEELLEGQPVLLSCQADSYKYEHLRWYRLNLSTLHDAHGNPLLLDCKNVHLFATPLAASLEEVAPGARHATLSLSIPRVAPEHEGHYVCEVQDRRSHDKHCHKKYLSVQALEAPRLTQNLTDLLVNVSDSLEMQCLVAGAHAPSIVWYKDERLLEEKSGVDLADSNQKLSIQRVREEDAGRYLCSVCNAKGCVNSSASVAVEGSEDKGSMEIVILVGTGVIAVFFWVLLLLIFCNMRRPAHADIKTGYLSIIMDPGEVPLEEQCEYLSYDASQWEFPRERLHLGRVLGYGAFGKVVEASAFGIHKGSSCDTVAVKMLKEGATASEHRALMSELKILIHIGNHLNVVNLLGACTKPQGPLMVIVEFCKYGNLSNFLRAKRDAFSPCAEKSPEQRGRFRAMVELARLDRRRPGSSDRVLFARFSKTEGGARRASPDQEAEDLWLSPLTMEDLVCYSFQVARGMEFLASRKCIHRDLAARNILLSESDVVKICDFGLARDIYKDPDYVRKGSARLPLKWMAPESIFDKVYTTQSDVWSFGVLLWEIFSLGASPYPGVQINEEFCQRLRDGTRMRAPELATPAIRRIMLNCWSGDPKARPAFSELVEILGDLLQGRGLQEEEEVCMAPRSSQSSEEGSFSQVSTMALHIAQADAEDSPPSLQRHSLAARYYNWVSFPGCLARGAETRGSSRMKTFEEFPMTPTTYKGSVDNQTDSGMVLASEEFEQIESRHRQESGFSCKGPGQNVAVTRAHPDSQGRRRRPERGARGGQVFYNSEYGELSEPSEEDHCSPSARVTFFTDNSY
- experimentDescription: KINOMEscan competition binding assay
observationType: pKd
Please note pKd is a logarithmic value: minus log10 of concentration in mol/L. Answer with that number alone.

Exam item: # pKd lookup, item `COc1ccc(-c2cncc(N[C@@H](C)c3cccc(NC(=O)c4cncc(C)c4)c3)n2)cc1OC`
Marked response: 7.74

* * *

- target: FYN (Homo sapiens)
- Sequence (P06241 whole entry): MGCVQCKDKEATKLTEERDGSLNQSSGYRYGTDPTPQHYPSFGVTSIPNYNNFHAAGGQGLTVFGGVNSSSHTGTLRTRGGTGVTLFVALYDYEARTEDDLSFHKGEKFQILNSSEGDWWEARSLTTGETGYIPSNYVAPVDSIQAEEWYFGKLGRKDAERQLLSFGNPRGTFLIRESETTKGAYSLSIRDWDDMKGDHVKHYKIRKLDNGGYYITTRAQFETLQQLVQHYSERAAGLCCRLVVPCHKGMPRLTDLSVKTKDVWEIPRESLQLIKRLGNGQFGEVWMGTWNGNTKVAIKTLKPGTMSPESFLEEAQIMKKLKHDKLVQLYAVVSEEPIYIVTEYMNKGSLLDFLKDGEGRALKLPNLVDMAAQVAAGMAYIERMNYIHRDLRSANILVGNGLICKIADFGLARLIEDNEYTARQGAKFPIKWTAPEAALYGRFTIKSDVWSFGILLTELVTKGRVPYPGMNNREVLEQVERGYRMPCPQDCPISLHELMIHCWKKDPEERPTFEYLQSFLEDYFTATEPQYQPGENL
observationType: Kd (µM)
Please respond with the number in µM and leave the unit unwritten.

Exam item: Lab note: need Kd with FYN (Homo sapiens) for entry COc1ccc(-c2cncc(N[C@@H](C)c3cccc(NC(=O)c4cncc(C)c4)c3)n2)cc1OC [Compound B] , please look it up.
Marked response: 0.055

* * *

- target: UniProt P09769
- Sequence (P09769 whole entry): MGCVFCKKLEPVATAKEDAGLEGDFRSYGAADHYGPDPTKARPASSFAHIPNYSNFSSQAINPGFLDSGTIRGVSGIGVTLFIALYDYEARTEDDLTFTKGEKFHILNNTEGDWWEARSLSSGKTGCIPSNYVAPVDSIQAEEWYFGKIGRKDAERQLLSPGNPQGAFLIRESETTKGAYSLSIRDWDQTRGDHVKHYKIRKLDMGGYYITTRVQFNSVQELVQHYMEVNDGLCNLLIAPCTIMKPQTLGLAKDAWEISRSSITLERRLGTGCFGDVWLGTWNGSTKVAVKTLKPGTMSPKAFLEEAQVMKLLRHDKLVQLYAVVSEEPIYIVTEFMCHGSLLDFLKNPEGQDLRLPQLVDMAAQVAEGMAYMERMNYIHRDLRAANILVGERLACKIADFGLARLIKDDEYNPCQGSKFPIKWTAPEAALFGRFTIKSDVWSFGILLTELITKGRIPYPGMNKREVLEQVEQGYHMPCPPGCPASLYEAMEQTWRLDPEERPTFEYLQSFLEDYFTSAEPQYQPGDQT
observationType: pKd
# pKd: negative log10 of molar concentration; output just the value

Exam item: Form entry - test system: UniProt P09769; read-out: pKd; compound: `COc1ccc(-c2cncc(N[C@@H](C)c3cccc(NC(=O)c4cncc(C)c4)c3)n2)cc1OC`
Marked response: 7.04

* * *

- target: VEGFR2 (Homo sapiens)
- Sequence (P35968 20-1356): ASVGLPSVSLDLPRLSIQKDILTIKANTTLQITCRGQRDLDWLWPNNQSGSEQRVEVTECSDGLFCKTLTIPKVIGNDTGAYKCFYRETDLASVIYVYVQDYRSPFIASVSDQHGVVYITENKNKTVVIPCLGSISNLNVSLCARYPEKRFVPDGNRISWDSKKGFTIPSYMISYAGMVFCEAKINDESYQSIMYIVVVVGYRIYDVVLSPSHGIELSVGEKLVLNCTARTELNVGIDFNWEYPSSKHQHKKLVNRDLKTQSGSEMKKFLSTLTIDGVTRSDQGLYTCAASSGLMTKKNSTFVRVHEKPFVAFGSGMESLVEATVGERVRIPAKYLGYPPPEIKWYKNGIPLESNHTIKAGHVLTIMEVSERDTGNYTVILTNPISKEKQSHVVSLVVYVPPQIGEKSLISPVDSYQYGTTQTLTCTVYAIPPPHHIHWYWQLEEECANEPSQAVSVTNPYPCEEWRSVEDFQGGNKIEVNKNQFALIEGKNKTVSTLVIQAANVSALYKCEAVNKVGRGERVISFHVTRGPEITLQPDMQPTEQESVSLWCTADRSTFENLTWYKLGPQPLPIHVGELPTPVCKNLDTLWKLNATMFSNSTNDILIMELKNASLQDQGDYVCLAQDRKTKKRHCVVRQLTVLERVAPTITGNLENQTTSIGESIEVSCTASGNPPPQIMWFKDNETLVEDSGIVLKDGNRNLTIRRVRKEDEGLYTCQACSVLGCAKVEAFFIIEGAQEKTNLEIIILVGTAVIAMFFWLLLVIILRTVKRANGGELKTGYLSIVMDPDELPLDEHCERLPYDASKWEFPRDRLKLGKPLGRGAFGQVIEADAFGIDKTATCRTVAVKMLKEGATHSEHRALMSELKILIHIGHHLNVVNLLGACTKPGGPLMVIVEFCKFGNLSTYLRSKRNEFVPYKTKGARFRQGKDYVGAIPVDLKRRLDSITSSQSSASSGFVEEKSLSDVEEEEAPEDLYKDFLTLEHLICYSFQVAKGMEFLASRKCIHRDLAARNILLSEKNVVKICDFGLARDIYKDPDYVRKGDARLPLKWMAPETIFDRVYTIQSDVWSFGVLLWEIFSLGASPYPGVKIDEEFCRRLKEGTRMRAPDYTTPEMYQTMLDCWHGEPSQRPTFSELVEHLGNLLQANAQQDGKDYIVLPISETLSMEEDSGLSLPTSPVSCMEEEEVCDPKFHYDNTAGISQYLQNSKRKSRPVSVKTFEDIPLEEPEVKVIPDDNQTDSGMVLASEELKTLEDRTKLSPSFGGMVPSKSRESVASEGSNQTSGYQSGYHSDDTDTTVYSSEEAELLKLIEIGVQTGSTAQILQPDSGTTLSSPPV
observationType: Kd (nM)
Report as a plain number; the unit nM is understood.

Exam item: Give the reported Kd for `COc1ccc(-c2cncc(N[C@@H](C)c3cccc(NC(=O)c4cncc(C)c4)c3)n2)cc1OC` (system: VEGFR2 (Homo sapiens)).
Marked response: 15
